target: α1β3(M286W) GABAA receptor (Homo sapiens, UniProt P14867+P28472, M311W); test: Two-electrode voltage clamp activation of α1β3
outcome.measure: pKd
Please keep in mind that pKd is minus log10 of the molar concentration; only the number is needed.

# input Any idea what its pKd is? The compound is CC(C)c1cccc(C(C)C)c1O [Propofol, 2,6-diisopropylphenol]
# output 5.22

---

Molecular target: α1β3(M286W+Q224W) GABAA receptor (Homo sapiens, UniProt P14867+P28472, M311W/Q249W)
Sequence (P28472 26-473 Q249W/M311W): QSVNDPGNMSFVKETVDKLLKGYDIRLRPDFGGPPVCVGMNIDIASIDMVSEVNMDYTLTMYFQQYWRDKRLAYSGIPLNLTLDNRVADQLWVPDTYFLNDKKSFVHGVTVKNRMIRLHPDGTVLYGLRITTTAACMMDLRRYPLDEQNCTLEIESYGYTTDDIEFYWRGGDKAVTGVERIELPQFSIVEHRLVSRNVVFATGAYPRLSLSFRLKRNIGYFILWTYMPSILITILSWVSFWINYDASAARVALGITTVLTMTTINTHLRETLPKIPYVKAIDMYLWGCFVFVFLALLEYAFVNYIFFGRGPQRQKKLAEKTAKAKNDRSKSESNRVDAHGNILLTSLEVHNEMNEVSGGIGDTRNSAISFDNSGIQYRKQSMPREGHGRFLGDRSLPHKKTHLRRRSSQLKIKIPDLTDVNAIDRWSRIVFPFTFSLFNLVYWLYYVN
Sequence (P14867 28-456): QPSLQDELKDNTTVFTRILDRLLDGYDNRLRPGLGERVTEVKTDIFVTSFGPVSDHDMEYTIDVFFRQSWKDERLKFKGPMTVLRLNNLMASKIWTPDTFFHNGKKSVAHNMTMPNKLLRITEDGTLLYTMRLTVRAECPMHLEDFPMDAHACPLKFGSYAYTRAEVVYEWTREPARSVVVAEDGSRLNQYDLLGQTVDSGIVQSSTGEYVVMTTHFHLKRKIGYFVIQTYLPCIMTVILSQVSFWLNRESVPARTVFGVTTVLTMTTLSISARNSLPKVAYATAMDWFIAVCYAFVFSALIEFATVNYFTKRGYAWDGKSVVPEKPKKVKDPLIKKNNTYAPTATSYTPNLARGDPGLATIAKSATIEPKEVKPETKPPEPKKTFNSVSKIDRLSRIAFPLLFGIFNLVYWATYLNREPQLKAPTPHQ
Assay: cell-based
outcome.measure: Kd (µM)
Write the value in µM as a bare number.

# input Form field: reported Kd of CC(C)c1cccc(C(C)C)c1O
# output 61

---

Biological target: α1β3(Q224W) GABAA receptor (Homo sapiens, UniProt P14867+P28472, Q249W)
Sequence (P28472 26-473 Q249W): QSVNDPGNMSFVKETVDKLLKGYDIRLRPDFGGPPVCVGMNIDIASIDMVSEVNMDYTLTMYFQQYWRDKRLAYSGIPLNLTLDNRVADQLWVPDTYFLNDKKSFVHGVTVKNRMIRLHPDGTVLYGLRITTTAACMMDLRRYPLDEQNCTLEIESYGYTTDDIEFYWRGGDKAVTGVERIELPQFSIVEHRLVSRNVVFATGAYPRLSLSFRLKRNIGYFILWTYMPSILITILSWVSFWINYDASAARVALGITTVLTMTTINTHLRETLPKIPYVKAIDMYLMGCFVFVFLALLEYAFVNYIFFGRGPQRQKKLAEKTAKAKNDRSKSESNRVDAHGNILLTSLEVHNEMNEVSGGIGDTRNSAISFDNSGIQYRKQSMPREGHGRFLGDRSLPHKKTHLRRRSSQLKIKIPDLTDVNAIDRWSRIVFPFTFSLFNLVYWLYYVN
Sequence (P14867 28-456): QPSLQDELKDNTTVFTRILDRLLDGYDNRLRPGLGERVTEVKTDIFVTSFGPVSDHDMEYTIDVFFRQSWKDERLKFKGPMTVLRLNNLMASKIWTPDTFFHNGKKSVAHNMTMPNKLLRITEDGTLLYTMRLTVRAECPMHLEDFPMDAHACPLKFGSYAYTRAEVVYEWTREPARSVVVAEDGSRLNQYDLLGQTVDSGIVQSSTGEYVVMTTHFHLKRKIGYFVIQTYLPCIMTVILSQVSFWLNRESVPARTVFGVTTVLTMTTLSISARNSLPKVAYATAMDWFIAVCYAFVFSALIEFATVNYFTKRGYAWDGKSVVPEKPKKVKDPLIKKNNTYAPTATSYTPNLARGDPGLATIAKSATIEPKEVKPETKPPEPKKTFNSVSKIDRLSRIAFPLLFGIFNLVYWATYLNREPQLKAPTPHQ
Assay: Two-electrode voltage clamp activation of α1β3
outcome.measure: EC50 (µM)
I only need the number, in µM, no unit after it.

# input Which EC50 value is on record for CC(C)c1cccc(C(C)C)c1O [Propofol, 2,6-diisopropylphenol] ?
# output 50

---

biological target: α1β3(Y143W) GABAA receptor (Homo sapiens, UniProt P14867+P28472, Y168W); test: Two-electrode voltage clamp activation of α1β3
outcome.measure: Kd (µM)
Just the number please, in µM, no unit attached.

# input # Kd lookup, item CC(C)c1cccc(C(C)C)c1O
# output 23

---

Biological target: α1β3(M286W) GABAA receptor (Homo sapiens, UniProt P14867+P28472, M311W)
Sequence (P28472 26-473 M311W): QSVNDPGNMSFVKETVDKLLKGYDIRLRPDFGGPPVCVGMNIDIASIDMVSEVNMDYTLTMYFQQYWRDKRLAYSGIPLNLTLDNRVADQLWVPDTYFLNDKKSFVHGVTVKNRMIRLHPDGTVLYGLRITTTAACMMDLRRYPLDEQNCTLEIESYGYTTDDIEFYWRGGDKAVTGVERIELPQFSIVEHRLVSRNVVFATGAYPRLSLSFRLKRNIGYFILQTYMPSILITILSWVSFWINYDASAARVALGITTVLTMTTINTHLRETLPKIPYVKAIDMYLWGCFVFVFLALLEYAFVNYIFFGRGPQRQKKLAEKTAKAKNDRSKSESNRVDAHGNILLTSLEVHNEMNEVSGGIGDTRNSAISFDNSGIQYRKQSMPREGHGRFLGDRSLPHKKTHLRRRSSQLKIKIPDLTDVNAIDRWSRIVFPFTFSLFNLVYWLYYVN
Sequence (P14867 28-456): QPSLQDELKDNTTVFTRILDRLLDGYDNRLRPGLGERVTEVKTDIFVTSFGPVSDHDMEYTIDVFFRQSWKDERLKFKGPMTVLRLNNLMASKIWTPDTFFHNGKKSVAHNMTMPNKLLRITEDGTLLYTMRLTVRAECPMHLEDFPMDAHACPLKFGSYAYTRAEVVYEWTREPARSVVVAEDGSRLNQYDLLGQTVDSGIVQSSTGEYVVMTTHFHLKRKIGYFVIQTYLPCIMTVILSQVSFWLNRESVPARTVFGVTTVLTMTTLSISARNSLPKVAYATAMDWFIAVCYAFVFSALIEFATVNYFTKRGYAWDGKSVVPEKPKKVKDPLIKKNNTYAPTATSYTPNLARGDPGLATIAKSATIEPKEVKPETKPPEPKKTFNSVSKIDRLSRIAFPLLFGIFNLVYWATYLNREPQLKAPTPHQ
Experiment: Two-electrode voltage clamp activation of α1β3
outcome.measure: pEC50
Please note pEC50 is a logarithmic value: minus log10 of concentration in mol/L. Answer with that number alone.

# input I have this molecule here, CC(C)c1cccc(C(C)C)c1O , and I need its recorded pEC50.
# output 4.85

---

biological target: α1β3(Y143W) GABAA receptor (Homo sapiens, UniProt P14867+P28472, Y168W); experiment: Two-electrode voltage clamp activation of α1β3
outcome.measure: EC50 (µM)
Expressed in µM, but write only the number.

# input # get_value(readout='EC50', item= CC(C)c1cccc(C(C)C)c1O )
# output 12.8

---

biological target: α1β3(M286W+Y143W) GABAA receptor (Homo sapiens, UniProt P14867+P28472, M311W/Y168W); test: Two-electrode voltage clamp activation of α1β3
outcome.measure: pEC50
Formally, pEC50 is defined as -log10 of the concentration c, with c in mol/L.

# input Recorded pEC50 for CC(C)c1cccc(C(C)C)c1O , please?
# output 5.80

---

Molecular target: α1β3(F221W) GABAA receptor (Homo sapiens, UniProt P14867+P28472, F246W)
Sequence (P28472 26-473 F246W): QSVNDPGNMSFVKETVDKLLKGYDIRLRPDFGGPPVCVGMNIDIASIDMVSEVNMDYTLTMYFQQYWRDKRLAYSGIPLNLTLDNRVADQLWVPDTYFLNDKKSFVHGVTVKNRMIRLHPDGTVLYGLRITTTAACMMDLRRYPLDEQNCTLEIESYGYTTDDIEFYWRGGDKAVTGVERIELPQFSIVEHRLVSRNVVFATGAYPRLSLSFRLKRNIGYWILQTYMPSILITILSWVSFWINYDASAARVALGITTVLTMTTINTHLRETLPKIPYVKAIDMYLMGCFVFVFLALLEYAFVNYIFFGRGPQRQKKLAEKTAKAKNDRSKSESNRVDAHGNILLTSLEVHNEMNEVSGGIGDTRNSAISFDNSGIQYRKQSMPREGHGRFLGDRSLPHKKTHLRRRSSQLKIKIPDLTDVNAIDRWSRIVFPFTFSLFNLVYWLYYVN
Sequence (P14867 28-456): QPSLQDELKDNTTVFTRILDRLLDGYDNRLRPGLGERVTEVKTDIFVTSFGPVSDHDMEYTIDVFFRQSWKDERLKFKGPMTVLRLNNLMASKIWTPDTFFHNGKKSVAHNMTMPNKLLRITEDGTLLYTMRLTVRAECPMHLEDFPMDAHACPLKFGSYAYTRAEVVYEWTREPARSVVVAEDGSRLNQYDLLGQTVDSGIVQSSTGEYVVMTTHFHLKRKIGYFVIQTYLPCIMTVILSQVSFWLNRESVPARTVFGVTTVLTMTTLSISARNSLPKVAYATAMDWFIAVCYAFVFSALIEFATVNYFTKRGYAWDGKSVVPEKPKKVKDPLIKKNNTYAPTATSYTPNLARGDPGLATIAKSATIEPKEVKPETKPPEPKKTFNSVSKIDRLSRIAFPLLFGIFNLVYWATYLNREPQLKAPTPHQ
Assay: Two-electrode voltage clamp activation of α1β3
outcome.measure: Kd (µM)
State just the number; it will be interpreted in µM.

# input What does the record list as Kd for CC(C)c1cccc(C(C)C)c1O ?
# output 13.1
